testSystem: T1, ckCDH19(1-43)::FLAG::ckCDH19(44-249)::huCDH19(250-364)::ckCDH19(365-776) (construct M, Hu EC3) (human/chicken chimera)
T1 construct: leader (1-43 of the entry) left out
testDescription: flow cytometry, transfected 293T cells, 2 mM CaCl2;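 note: binding of Alexa647-labelled anti-CDH19 antibodies to cells expressing human/chicken CDH19 chimeras, read as cell-bound fluorescence, with mock-transfected cells as controls, n.d. meaning not determined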
recordedEndpoint: binding result

[
  {
    "binder": "hu anti-<huCDH19> 4B10 (Ab ID 13590) (antibody, V domains shown, huIgG1z / huKLC; Bin 4) VH: QVQLVESGGGVVQPGRSLRLSCAASGFTFSSYDMHWVRQAPGKGLEWVAVISYDGTNEYYADSVKGRFTISRDTSKNTLYLQMNSLRAEDTAVYYCARERYFDWSFDYWGQGTLVSVSS VL: EIVLTQSPGTLSLSPGERATLSCRASQSVSNTYLAWYHQRPGQAPRLLIYGASSRATGIPDRFSGSGSGTDFALTISSLEPEDFAVYYCQQYSNSWTFGQGTKVEIKR",
    "recordedEndpoint": "binding result",
    "result": "binds"
  },
  {
    "binder": "hu anti-<huCDH19> 23A10.3 (1-474)(L92Q) VH::huIgG1z + 23A10.3 (1-231)(C42S) VL::huLLC-C2 (Ab ID 14077) (antibody, V domains shown, Engineered variant of 23A10; the entries already carry the changes; Bin 4) VH: QVQLVESGGGVVQPGRSLRLSCAASGFTFSRYGIHWVRQAPGKGLEWVAVIWYDGSNKYYADSVKGRFTISRDNSKNTLYLQMNSLRAEDSAVYYCARRAGIPGTTGYYYGMDVWGQGTTVTVSS VL: SYELTQPPSVSVSPGQTASITCSGDRLGEKYVSWYQQKPGQSPILVIYQDNKWPSGIPERFSGSNSGNTATLTISGTQAMDEADYYCQAWDSSTVVFGGGTKLTVLG",
    "recordedEndpoint": "binding result",
    "result": "binds"
  }
]
